Conditions: buffer; pH 7.4; 200.0 µM
Would you mind telling me the reported solubility kinetic of each entry?
Respond numerically; units are µg/mL and should not be typed.

# solubility kinetic lookup, item `O=C(CSCc1ccccc1Br)Nc1ccccc1`
29.5

# solubility kinetic lookup, item `CCOc1ccc(C(=O)N2CCc3ccccc32)cc1`
13.3

# solubility kinetic lookup, item CCc1ccc(N2C(=O)C3CCCN3C2=S)cc1 (centres undefined)
29.4

# solubility kinetic lookup, item `CCNC(=O)c1ccccc1CCc1ccccc1`
32.7

# solubility kinetic lookup, item CCCOP(=O)(c1ccc(N(C)C)cc1)C(O)c1ccc(Cl)cc1 (centres undefined)
18.5

# solubility kinetic lookup, item `COc1ccc([C@@H]2OC2(C(N)=O)C(N)=O)cc1`
32.2

# solubility kinetic lookup, item `Cl.OCCN1CCN(CC/C=C2/c3ccccc3Sc3ccc(C(F)(F)F)cc32)CC1`
60.1

# solubility kinetic lookup, item `CN(C)S(=O)(=O)c1ccc(N2CCCC2)c(C(=O)Nc2nccs2)c1`
51.6

Attribution: PubChem BioAssay AID1996
